target: LRRK2 G2019S (Homo sapiens, UniProt Q5S007, G2019S); test: LRRK2 G2019S Km ATP LanthaScreen assay; type: biochemical; details: read-out: LRRK2 pIC50 (converted)
Sequence (Q5S007 whole entry G2019S): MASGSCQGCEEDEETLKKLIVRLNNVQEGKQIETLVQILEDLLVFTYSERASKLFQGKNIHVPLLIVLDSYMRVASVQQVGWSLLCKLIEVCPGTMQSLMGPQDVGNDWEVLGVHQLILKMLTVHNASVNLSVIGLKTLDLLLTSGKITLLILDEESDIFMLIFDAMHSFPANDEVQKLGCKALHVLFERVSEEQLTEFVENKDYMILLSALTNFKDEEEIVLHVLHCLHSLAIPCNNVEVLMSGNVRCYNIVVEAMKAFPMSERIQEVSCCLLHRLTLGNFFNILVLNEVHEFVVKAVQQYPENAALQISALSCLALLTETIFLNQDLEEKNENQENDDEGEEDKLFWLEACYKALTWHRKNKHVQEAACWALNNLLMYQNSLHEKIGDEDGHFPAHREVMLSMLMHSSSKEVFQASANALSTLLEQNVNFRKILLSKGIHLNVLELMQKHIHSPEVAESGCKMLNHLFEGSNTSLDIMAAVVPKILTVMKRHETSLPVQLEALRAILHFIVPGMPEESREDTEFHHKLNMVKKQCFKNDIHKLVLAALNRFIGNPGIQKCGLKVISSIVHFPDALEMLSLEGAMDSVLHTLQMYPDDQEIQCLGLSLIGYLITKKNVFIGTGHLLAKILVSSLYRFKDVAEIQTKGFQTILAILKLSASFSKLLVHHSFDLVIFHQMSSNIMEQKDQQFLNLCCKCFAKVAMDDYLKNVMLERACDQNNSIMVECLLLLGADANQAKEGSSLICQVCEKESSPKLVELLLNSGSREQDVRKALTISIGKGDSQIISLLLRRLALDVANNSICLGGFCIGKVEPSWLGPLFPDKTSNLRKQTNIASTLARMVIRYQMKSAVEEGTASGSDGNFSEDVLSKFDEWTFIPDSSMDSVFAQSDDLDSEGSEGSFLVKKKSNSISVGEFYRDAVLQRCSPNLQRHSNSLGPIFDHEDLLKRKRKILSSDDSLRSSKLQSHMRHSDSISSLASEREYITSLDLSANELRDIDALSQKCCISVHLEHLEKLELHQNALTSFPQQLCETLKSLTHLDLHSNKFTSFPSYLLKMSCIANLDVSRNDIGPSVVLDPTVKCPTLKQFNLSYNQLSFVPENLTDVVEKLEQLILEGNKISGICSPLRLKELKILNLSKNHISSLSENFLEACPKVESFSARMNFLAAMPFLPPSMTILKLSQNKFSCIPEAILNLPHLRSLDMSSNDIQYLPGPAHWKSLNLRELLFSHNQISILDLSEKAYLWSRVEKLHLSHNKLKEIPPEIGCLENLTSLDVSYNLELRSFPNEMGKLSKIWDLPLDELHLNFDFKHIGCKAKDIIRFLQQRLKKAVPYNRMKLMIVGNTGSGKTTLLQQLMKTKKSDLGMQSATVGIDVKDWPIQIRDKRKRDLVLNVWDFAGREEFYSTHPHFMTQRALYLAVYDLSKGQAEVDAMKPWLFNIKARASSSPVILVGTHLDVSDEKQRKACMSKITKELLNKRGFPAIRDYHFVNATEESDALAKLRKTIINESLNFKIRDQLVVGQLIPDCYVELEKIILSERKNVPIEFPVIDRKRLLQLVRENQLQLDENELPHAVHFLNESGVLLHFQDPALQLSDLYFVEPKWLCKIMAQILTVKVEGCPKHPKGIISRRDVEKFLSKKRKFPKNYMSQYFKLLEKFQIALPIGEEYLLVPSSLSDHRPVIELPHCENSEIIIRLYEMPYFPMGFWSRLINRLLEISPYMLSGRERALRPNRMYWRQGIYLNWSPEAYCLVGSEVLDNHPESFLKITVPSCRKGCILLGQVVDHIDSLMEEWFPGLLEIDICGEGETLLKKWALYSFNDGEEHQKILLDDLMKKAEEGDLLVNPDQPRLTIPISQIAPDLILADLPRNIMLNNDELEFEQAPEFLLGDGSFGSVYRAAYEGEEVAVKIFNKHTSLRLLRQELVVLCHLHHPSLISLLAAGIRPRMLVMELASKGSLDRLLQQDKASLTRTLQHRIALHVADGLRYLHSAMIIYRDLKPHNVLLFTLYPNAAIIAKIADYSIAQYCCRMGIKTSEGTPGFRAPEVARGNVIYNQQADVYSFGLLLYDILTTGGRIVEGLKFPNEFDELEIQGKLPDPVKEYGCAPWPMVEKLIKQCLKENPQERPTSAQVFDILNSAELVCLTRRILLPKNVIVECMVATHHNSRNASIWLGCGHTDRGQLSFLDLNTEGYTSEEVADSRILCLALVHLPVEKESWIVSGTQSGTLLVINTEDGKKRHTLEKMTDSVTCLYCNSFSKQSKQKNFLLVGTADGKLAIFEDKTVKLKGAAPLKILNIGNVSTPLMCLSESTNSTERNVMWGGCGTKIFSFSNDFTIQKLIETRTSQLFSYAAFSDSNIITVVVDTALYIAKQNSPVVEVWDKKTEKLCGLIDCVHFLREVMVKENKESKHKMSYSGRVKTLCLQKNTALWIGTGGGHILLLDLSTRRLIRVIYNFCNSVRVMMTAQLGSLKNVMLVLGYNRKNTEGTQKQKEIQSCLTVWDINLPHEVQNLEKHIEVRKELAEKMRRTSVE
Hi! Could you tag entries with IC50 below 4 nM as MET, and those at or above as NOT MET? Much appreciated.

Example entries begin here.
compound	assignedClass
N#CC1(c2ccc3cnc(NC(=O)C4CC4)cc3c2)CC12CC2 (single isomer, unassigned) [Ex-18.2]	MET
O=C(Nc1cc2cc(C3CCN(C4COC4)CC3)c(Cl)cc2cn1)C1CC(OC(F)F)C1 (single isomer, unassigned) [Ex-2.3]	NOT MET
CC(C(=O)Nc1cc2cc(C3CCN(C4(C)COCC4O)CC3)c(Cl)cc2cn1)c1cnn(C)c1 (stereo not shown) [Ex-2.107]	MET

Could you please tell me whether IC50 recorded for O=C(Nc1cc2cc(C3CCN(C4COCC4O)CC3)c(Cl)cc2cn1)C1CC1 (single isomer, unassigned) [Ex-12.3] is less than 4 nM?
MET

Could you please tell me whether IC50 recorded for Cn1cc(C(=O)Nc2cc3cc(C4CCN([C@]5(C)COC[C@@H]5O)CC4)c(Cl)cc3cn2)cn1 (single isomer, unassigned) [Ex-12.9] is less than 4 nM?
NOT MET

Could you please tell me whether IC50 recorded for CC(C)(O)C1CC(C(=O)Nc2cc3cc(C4CCN(C5(C)COCC5O)CC4)c(Cl)cc3cn2)C1 (stereo not shown) [Ex-2.13] is less than 4 nM?
MET

###

molecular target: LRRK2 G2019S (Homo sapiens, UniProt Q5S007, G2019S); experiment: LRRK2 G2019S Km ATP LanthaScreen assay; assay type: biochemical
recordedMetric: LRRK2 pIC50
Just the number, please, no unit attached.

As a guide, the following entries are already answered.
molecule	recordedMetric	reportedMeasurement
O=C(Nc1cc2cc(C3CCN(C4COC4)CC3)c(Cl)cc2cn1)C1CC12CC2 (centres unmarked)	LRRK2 pIC50	8.69
O=C(Nc1cc2cc(C3CCN([C@@H]4COC[C@@H]4O)CC3)c(Cl)cc2cn1)C1CC12CCOC2 (single isomer, unassigned)	LRRK2 pIC50	10.0
CC1(N2CCC(c3cc4cc(NC(=O)Cc5ccncc5)ncc4cc3Cl)CC2)COCC1O (centres unmarked)	LRRK2 pIC50	10.09

Record Cn1ncc(C2CC2C(=O)Nc2cc3cc(C4CCN(C5(C)COCC5O)CC4)c(Cl)cc3cn2)n1 (centres unmarked) , field LRRK2 pIC50: 10.09

Record CO[C@H]1C[C@H](C(=O)Nc2cc3cc(C4(C#N)CC45CC5)ccc3cn2)C1.O=C(O)C(F)(F)F (some centres unmarked) , field LRRK2 pIC50: 8.96

###

biological target: LRRK2 G2019S (Homo sapiens, UniProt Q5S007, G2019S); experiment: LRRK2 G2019S Km ATP LanthaScreen assay; assay type: biochemical; settings: read-out: LRRK2 pIC50 (converted)
Hi! Could you tag entries with IC50 below 4 nM as 1.0, and those at or above as 0.0? Much appreciated.

Example entries begin here.
compound	assignedClass
Cn1cc(CC(=O)Nc2cc3cc(C4CCN(C5(C)COCC5O)CC4)c(Cl)cc3cn2)c(Cl)n1 (centres unmarked)	1.0
CC1(C)CCC(C(=O)Nc2cc3cc(C4CCN(C5(C)COCC5O)CC4)c(Cl)cc3cn2)CO1 (single isomer, unassigned) [Ex-4.26]	1.0
CC(C)C1CC(C(=O)Nc2cc3cc(C4CCN(C5(C)COCC5O)CC4)c(Cl)cc3cn2)C1 (racemic)	1.0
CC1(N2CCC(c3cc4cc(NC(=O)C5CC56CCOCC6)ncc4cc3Cl)CC2)COCC1F (single isomer, unassigned) [Ex-6.24]	1.0
Cc1cc2cnc(NC(=O)C3CC3c3ccccn3)cc2cc1C1CCN(C2(C)COCC2F)CC1 (single isomer, unassigned) [Ex-13.3]	1.0
Cc1cc2cnc(NC(=O)C3C4CCOCC43)cc2cc1C1CCN(C2(C)COCC2O)CC1 (centres unmarked) [Ex-2.51]	1.0

Could you please tell me whether IC50 recorded for CC1(N2CCC(c3cc4cc(NC(=O)C5CC56CCOCC6)ncc4cc3Cl)CC2)CCOCC1F (single isomer, unassigned) [Ex-12.2] is less than 4 nM?
0.0

Could you please tell me whether IC50 recorded for CC(C)Cn1nccc1C1CC1C(=O)Nc1cc2cc(C3CCN(C4(C)COCC4O)CC3)c(Cl)cc2cn1 (single isomer, unassigned) [Ex-4.61] is less than 4 nM?
0.0

Could you please tell me whether IC50 recorded for O=C(Nc1cc2cc(C3CCN(C4CS(=O)(=O)C4)CC3)c(Cl)cc2cn1)C1CC1 is less than 4 nM?
0.0

Could you please tell me whether IC50 recorded for CC1(N2CCC(c3cc4cc(NC(=O)C5CC56CCOCC6)ncc4cc3Cl)CC2)CCOC1 (centres unmarked) [Ex-2.22] is less than 4 nM?
0.0

Could you please tell me whether IC50 recorded for CC(C(=O)Nc1cc2cc(C3CCN(C4(C)COCC4O)CC3)c(Cl)cc2cn1)c1cnn(C)c1 (centres unmarked) [Ex-2.106] is less than 4 nM?
1.0

Could you please tell me whether IC50 recorded for CC1(N2CCC(c3cc4cc(NC(=O)C5CC5C(F)F)ncc4cc3Cl)CC2)COCC1O (single isomer, unassigned) [Ex-4.43] is less than 4 nM?
1.0

Could you please tell me whether IC50 recorded for N#CC1(c2ccc3cnc(NC(=O)C4CC4c4cccnc4)cc3c2)CC12CC2 (centres unmarked) [Ex-2.45] is less than 4 nM?
0.0

Could you please tell me whether IC50 recorded for CC1(C)CC(C(=O)Nc2cc3cc(C4CCC(N5CCC(F)C5)CC4)c(Cl)cc3cn2)CCO1 (single isomer, unassigned) [Ex-5.14] is less than 4 nM?
0.0

Cited source: patent US20240398784A1
